Where these numbers come from: the supplement of paper PMC13380429

cell viability for assorted molecules
# Tested on: HepG2
# PROTOCOL TEXT: cell viability relative to DMSO; higher = less toxic
# RUN CONDITIONS: 72 h; 10000 nM
Expressed in %, but write only the number.

Exercise: Look up and report measured cell viability for this entry: CC[C@H](/C=C/[C@@H](C)[C@H]1CC[C@H]2[C@@H]3CC=C4C[C@@H](O)CC[C@]4(C)[C@H]3CC[C@]12C)C(C)C [Stigmasterol (Stigmasterin)]
Solution: 105

----------
# System: U2OS
# PROTOCOL TEXT: cell viability relative to DMSO; higher = less toxic
# RUN CONDITIONS: 72 h; 1000 nM
PROPERTY LABEL: cell viability (%)
Expressed in %, but write only the number.

// solved cases for cell viability follow
COMPOUND | MEASURED ON | cell viability / %
Cc1ncc(CSSCc2cnc(C)c(O)c2CO)c(CO)c1O [pyritinol] | U2OS | 101
O=C(O[C@H]1C[C@H]2CC[C@@H](C1)[N+]21CCCC1)C(O)(c1ccccc1)c1ccccc1 [trospium] | U2OS | 99.1
COc1cc2nccc(Oc3ccc(NC(=O)NC4CC4)c(Cl)c3)c2cc1C(N)=O [lenvatinib] | U2OS | 90.8
Oc1cc2c(c(Cl)c1O)CCNCC2c1ccccc1 (stereo not drawn) | U2OS | 97.8
OC1(c2ccc(Cl)c(C(F)(F)F)c2)CCN(CCCC(c2ccc(F)cc2)c2ccc(F)cc2)CC1 [penfluridol] | U2OS | 93.2
CC1(C)O[C@@H]2C[C@H]3[C@@H]4CCC5=CC(=O)C=C[C@]5(C)[C@H]4[C@@H](O)C[C@]3(C)[C@]2(C(=O)CO)O1 [desonide] | U2OS | 93.6

Exercise: Look up and report measured cell viability for this entry: CCCCNc1ncc(-c2ccc(CN3CCOCC3)cn2)c(N[C@H]2CC[C@H](O)CC2)n1 [UNC2250]
Solution: 100

Exercise: Look up and report measured cell viability for this entry: C#C[C@]1(OC(=O)CCCCCC)CC[C@H]2[C@@H]3CCC4=CC(=O)CC[C@@H]4[C@H]3CC[C@@]21C [norethisterone-enanthate]
Solution: 98.8

Exercise: Look up and report measured cell viability for this entry: O=C(Nc1cnccc1Cl)N1CCN(Cc2ccc3c(c2)OC(F)(F)O3)CC1
Solution: 98.8

Exercise: Look up and report measured cell viability for this entry: COc1ccc(/C=C/C(=O)O)cc1 [trans-4-methoxycinnamic-acid]
Solution: 98.6

Exercise: Look up and report measured cell viability for this entry: O=c1[nH]cnc2c1ncn2[C@H]1CC[C@@H](CO)O1 [didanosine]
Solution: 101

----------
# Tested on: Calu-3
# PROTOCOL TEXT: cell viability relative to DMSO; higher = less toxic
# RUN CONDITIONS: 72 h; 1000 nM
PROPERTY LABEL: cell viability
Lab note: write values as number then unit, every time.

COMPOUND | MEASURED ON | ASSAY VALUE
COc1c(O[C@@H]2O[C@H](CO)[C@@H](O)[C@H](O)[C@H]2O)cc2c(c1OC)-c1ccc(SC)c(=O)cc1[C@@H](NC(C)=O)CC2 [thiocolchicoside] | Calu-3 | 102%

Exercise: Look up and report measured cell viability for this entry: N#Cc1ccc(Cn2cncc2CN2CCN(c3cccc(Cl)c3)C(=O)C2)cc1
Solution: 96.4%

Exercise: Look up and report measured cell viability for this entry: CN(C)CCCC(=O)Nc1ccc(C(=O)Nc2cccc(Nc3ncc(Cl)c(-c4c[nH]c5ccccc45)n3)c2)cc1
Solution: 94.8%
